# experimental target: NLRP3 inflammasome (Homo sapiens, UniProt Q96P20)
# Construct: host or cells: THP1-Null cells (PMA-differentiated, LPS-primed, nigericin-stimulated)
# Sequence (Q96P20 whole entry): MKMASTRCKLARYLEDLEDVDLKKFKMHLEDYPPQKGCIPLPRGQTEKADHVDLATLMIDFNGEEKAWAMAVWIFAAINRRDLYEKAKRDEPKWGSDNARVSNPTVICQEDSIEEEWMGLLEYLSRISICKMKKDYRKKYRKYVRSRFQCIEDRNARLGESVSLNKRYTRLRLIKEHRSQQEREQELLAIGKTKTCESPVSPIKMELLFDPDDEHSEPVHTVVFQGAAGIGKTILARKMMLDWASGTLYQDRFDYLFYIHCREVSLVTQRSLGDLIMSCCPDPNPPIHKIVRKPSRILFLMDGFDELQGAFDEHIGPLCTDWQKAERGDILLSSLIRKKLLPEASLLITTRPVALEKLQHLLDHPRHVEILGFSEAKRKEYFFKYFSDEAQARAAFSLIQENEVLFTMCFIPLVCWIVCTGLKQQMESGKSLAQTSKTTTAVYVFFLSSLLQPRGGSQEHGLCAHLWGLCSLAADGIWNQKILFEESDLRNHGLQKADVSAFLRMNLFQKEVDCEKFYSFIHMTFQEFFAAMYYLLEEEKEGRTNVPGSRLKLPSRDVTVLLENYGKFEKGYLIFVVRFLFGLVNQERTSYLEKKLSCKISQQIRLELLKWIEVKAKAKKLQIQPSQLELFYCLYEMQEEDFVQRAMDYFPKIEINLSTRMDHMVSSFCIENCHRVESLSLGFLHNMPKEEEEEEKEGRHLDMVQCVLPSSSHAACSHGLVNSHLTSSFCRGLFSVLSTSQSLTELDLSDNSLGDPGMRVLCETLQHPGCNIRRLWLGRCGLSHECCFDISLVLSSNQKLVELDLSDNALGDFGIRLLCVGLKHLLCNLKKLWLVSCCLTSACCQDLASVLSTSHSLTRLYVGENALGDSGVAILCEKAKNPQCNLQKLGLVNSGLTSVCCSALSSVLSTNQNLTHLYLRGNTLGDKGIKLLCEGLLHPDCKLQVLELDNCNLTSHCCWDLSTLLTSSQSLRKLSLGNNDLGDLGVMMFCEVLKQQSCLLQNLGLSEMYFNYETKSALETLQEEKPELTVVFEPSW
# assay overview: Evaluation of NLRP3 inflammasome inhibitory activity (inhibition of IL-1β production in LPS/Nigericin-stimulated THP1-Null cells, AlphaLISA)
# Format: cell-based
# experimental parameters: IL-1β production in THP1-Null cells; PMA, 1 µg/mL Lipopolysaccharides 3 hours, Nigericin 7.5 µmol/L 1.5 hours; read-out: IC50
pIC50: −log10 of the molar value.
# pIC50 per record follows

{"molecule": "COc1cc(C2CC2)cc(C)c1-n1cc2c(=O)[nH]c(C3(F)CCOCC3)nc2n1 [Example 111]", "pIC50": 7.82}
{"molecule": "Cc1ccc(-n2cc3c(=O)[nH]c(CC(C)C)nc3n2)c(C)c1 [Example 6]", "pIC50": 6.37}
{"molecule": "Cc1cc(Br)cc(C)c1-n1cc2c(=O)[nH]c(C3(F)CCC3)nc2n1 [Example 68]", "pIC50": 7.12}
{"molecule": "Cc1cc(Br)cc(C)c1-n1cc2c(=O)[nH]c(C(O)C(F)(F)F)nc2n1 (racemic) [Example 138]", "pIC50": 6.92}

====

# experimental target: NLRP3 inflammasome (Homo sapiens)
# Construct: host or cells: THP1-Null cells (PMA-differentiated, LPS-primed, nigericin-stimulated)
# assay overview: Evaluation of NLRP3 inflammasome inhibitory activity (inhibition of IL-1β production in LPS/Nigericin-stimulated THP1-Null cells, AlphaLISA)
# Format: cell-based
# experimental parameters: IL-1β production in THP1-Null cells; PMA, 1 µg/mL Lipopolysaccharides 3 hours, Nigericin 7.5 µmol/L 1.5 hours; read-out: IC50
pIC50: −log10 of the molar value.
# pIC50 values compiled below

{"compound": "Cc1cc(Br)cc(C)c1-n1cc2c(=O)[nH]c(C3CCOCC3O)nc2n1 (single isomer, unassigned)", "experimental target": "NLRP3 inflammasome (Homo sapiens)", "pIC50": 7.82}
{"compound": "Cc1cc(C2CC2)cc(C)c1-n1cc2c(=O)[nH]c(C3CC(F)(F)C3)nc2n1", "experimental target": "NLRP3 inflammasome (Homo sapiens)", "pIC50": 8.15}
{"compound": "COC1(c2nc3nn(-c4c(C)cc(Br)cc4C)cc3c(=O)[nH]2)CCOC1 (racemic)", "experimental target": "NLRP3 inflammasome (Homo sapiens)", "pIC50": 6.46}
{"compound": "Cc1cc(Br)cc(C)c1-n1cc2c(=O)[nH]c(C3(F)CCOCC3)nc2n1", "experimental target": "NLRP3 inflammasome (Homo sapiens)", "pIC50": 7.62}

====

# experimental target: NLRP3 inflammasome (Homo sapiens, UniProt Q96P20)
# Construct: host or cells: THP1-Null cells (PMA-differentiated, LPS-primed, nigericin-stimulated)
# assay overview: Evaluation of NLRP3 inflammasome inhibitory activity (inhibition of IL-1β production in LPS/Nigericin-stimulated THP1-Null cells, AlphaLISA)
# Type: cell-based
# experimental parameters: IL-1β production in THP1-Null cells; PMA, 1 µg/mL Lipopolysaccharides 3 hours, Nigericin 7.5 µmol/L 1.5 hours; read-out: IC50
measurement type: IC50 (nM)

{"compound": "Cc1cc(C2CC2)cc(C)c1-n1cc2c(=O)[nH]c(C34CC(CO)(CO3)C4)nc2n1", "experimental result": 42}
{"compound": "Cc1cc(C2CC2)ccc1-n1cc2c(=O)[nH]c(C3CC3)nc2n1", "experimental result": 47}
{"compound": "Cc1cc(C(C)(F)F)cc(C)c1-n1cc2c(=O)[nH]c(C3(F)CC3)nc2n1", "experimental result": 57}
{"compound": "Cc1c(-n2cc3c(=O)[nH]c(C4CCCC4)nc3n2)c(C(F)(F)F)nn1C(C)C", "experimental result": 300}
{"compound": "COCc1nc2nn(-c3ccc(C)cc3C)cc2c(=O)[nH]1", "experimental result": 580}
{"compound": "O=c1[nH]c(C2CC2)nc2nn(-c3cc4c(cc3Cl)OCCC4)cc12", "experimental result": 27}
{"compound": "Cc1cc(OC(F)F)cc(C)c1-n1cc2c(=O)[nH]c(C3CCOC3)nc2n1 (racemic)", "experimental result": 45}
{"compound": "COCc1cc(C2CC2)ccc1-n1cc2c(=O)[nH]c(C3CC3)nc2n1", "experimental result": 44}
{"compound": "Cc1cc(C2CC2)cc(C)c1-n1cc2c(=O)[nH]c(C(=O)NCC(F)F)nc2n1", "experimental result": 50}
{"compound": "CCNC(=O)c1nc2nn(-c3c(C)cc(C4CC4)cc3C)cc2c(=O)[nH]1", "experimental result": 11}
{"compound": "Cc1cc(C2CC2)cc(C)c1-n1cc2c(=O)[nH]c(COC3CCCOC3)nc2n1 (racemic)", "experimental result": 340}
{"compound": "Cc1cc(C2CC2)cc(C)c1-n1cc2c(=O)[nH]c(C(C)F)nc2n1 (racemic)", "experimental result": 44}
{"compound": "Cc1cc(OC(F)F)cc(C)c1-n1cc2c(=O)[nH]c(CCO)nc2n1", "experimental result": 25}
{"compound": "Cc1cc(C2CC2)cc(C)c1-n1cc2c(=O)[nH]c(C3CC3)nc2n1", "experimental result": 12}
{"compound": "COc1cc(C)c(-n2cc3c(=O)[nH]c(COCc4ccccc4)nc3n2)c(C)c1", "experimental result": 780}
{"compound": "Cc1ccccc1-n1cc2c(=O)[nH]c(C3=CCCC3)nc2n1", "experimental result": 1300}
{"compound": "Cc1cc(C2CC2)cc(C)c1-n1cc2c(=O)[nH]c(C(=O)NC3COC3)nc2n1", "experimental result": 740}

====

# experimental target: NLRP3 inflammasome (Homo sapiens, UniProt Q96P20)
# Construct: host or cells: THP1-Null cells (PMA-differentiated, LPS-primed, nigericin-stimulated)
# assay overview: Evaluation of NLRP3 inflammasome inhibitory activity (inhibition of IL-1β production in LPS/Nigericin-stimulated THP1-Null cells, AlphaLISA)
# Format: cell-based
# experimental parameters: test compound at 2.4 µM; IL-1β production in THP1-Null cells
# Lookup of reported inhibition at 2.4 µM keyed by entry
measurement type: inhibition at 2.4 µM (%)

{"chemical string": "CNC(=O)Cn1c(C)nc2nn(-c3ccc(C)cc3C)cc2c1=O", "experimental target": "NLRP3 inflammasome (Homo sapiens, UniProt Q96P20)", "experimental result": -15}
{"chemical string": "Cc1ccc(-n2cc3c(=O)n(CC(=O)O)c(C)nc3n2)c(C)c1", "experimental target": "NLRP3 inflammasome (Homo sapiens, UniProt Q96P20)", "experimental result": -3}
{"chemical string": "Cc1ccc(-n2cc3c(=O)n(CC(=O)N(C)C)c(C)nc3n2)c(C)c1", "experimental target": "NLRP3 inflammasome (Homo sapiens, UniProt Q96P20)", "experimental result": -14}
{"chemical string": "Cc1ccc(-n2cc3c(=O)[nH]c(CN4CCOCC4)nc3n2)c(C)c1", "experimental target": "NLRP3 inflammasome (Homo sapiens, UniProt Q96P20)", "experimental result": 40}
{"chemical string": "COC(=O)Cn1c(C)nc2nn(-c3ccc(C)cc3C)cc2c1=O", "experimental target": "NLRP3 inflammasome (Homo sapiens, UniProt Q96P20)", "experimental result": -13}

====

# experimental target: NLRP3 inflammasome (Homo sapiens)
# Construct: host or cells: THP1-Null cells (PMA-differentiated, LPS-primed, nigericin-stimulated)
# assay overview: Evaluation of NLRP3 inflammasome inhibitory activity (inhibition of IL-1β production in LPS/Nigericin-stimulated THP1-Null cells, AlphaLISA)
# Assay type: cell-based
# experimental parameters: test compound at 24 µM; IL-1β production in THP1-Null cells
inhibition at 24 µM reference
measurement type: inhibition at 24 µM

{"compound": "Cc1ccc(-n2cc3c(=O)n(C)c(C)nc3n2)c(C)c1 [Example 13]", "experimental target": "NLRP3 inflammasome (Homo sapiens)", "experimental result": "3%"}
{"compound": "COc1nc(C)nc2nn(-c3c(C)cc(Br)cc3C)cc12 [Example 210]", "experimental target": "NLRP3 inflammasome (Homo sapiens)", "experimental result": "9%"}
{"compound": "COc1nc(C)nc2nn(-c3ccc(C)cc3C)cc12 [Example 12]", "experimental target": "NLRP3 inflammasome (Homo sapiens)", "experimental result": "26%"}
{"compound": "CCOc1nc(C)nc2nn(-c3ccc(C)cc3C)cc12 [Example 11]", "experimental target": "NLRP3 inflammasome (Homo sapiens)", "experimental result": "43%"}

====

# experimental target: NLRP3 inflammasome (Homo sapiens, UniProt Q96P20)
# Construct: host or cells: THP1-Null cells (PMA-differentiated, LPS-primed, nigericin-stimulated)
# assay overview: Evaluation of NLRP3 inflammasome inhibitory activity (inhibition of IL-1β production in LPS/Nigericin-stimulated THP1-Null cells, AlphaLISA)
# Type: cell-based
# experimental parameters: IL-1β production in THP1-Null cells; PMA, 1 µg/mL Lipopolysaccharides 3 hours, Nigericin 7.5 µmol/L 1.5 hours; read-out: IC50
measurement type: IC50 (nM)

{"compound": "Cc1ccc(-n2cc3c(=O)[nH]c(C4CCCO4)nc3n2)c(C)c1 (racemic) [Example 31]", "experimental result": 790}
{"compound": "Cc1cc(Br)cc(C)c1-n1cc2c(=O)[nH]c(Cn3cccn3)nc2n1 [Example 62]", "experimental result": 230}
{"compound": "Cc1cc(C(C)(F)F)cc(C)c1-n1cc2c(=O)[nH]c(C3CC3(F)F)nc2n1 (racemic) [Example 125]", "experimental result": 24}
{"compound": "Cc1cc(Br)cc(C)c1-n1cc2c(=O)[nH]c(C3COCCO3)nc2n1 (racemic) [Example 28]", "experimental result": 190}
